Each entry below lists one item and its recorded residual activity value.
# SYSTEM: PRKCI (human)
# ASSAY TEXT: radiometric filter-binding kinase assay, Kinase HotSpot
# PARTICULARS: compound 0.5 µM; ATP 10 µM

# COMPOUND, SYSTEM, SCALE UNIT, residual activity
records = [
    ("CCN1/C(=C/C(C)=O)Sc2ccc(OC)cc21", "PRKCI (human)", "%", 97.8),
    ("COc1ccc(-c2cnc3c(-c4ccsc4)cnn3c2)cc1", "PRKCI (human)", "%", 96.2),
    ("Nc1nc(Nc2ccc(S(N)(=O)=O)cc2)nn1C(=S)Nc1c(F)cccc1F", "PRKCI (human)", "%", 78.9),
    ("CSc1nc(-c2ccc(F)cc2)c(-c2ccnc(NC(C)c3ccccc3)c2)[nH]1 (configuration not stated)", "PRKCI (human)", "%", 91.9),
    ("CC(C)n1cnc2c(Nc3cccc(Cl)c3)nc(NCCO)nc21", "PRKCI (human)", "%", 101),
    ("Oc1ccc(-c2nc(-c3ccc(F)cc3)c(-c3ccncc3)[nH]2)cc1", "PRKCI (human)", "%", 93.4),
    ("Nc1nc(Nc2ccc(S(N)(=O)=O)cc2)nn1C(=O)c1c(F)cccc1F", "PRKCI (human)", "%", 87.6),
    ("O=C1Nc2cc(Br)ccc2/C1=C1/Nc2ccccc2/C1=N\\O", "PRKCI (human)", "%", 97.3),
    ("O=c1cc(N2CCNCC2)oc2c(-c3ccccc3)cccc12", "PRKCI (human)", "%", 105),
    ("O=C(Nc1ccc(Cl)cc1)c1ccccc1NCc1ccncc1", "PRKCI (human)", "%", 98.7),
    ("Cc1cc2ncc(-c3ccccc3)nc2cc1C", "PRKCI (human)", "%", 98),
    ("CCCNC(=O)Nc1ccc(Oc2ncnc3cc(OC)c(OC)cc23)cc1Cl", "PRKCI (human)", "%", 93),
    ("Clc1ccc(Nc2nnc(Cc3ccncc3)c3ccccc23)cc1", "PRKCI (human)", "%", 94.2),
    ("CS(=O)c1ccc(-c2nc(-c3ccc(F)cc3)c(-c3ccncc3)[nH]2)cc1 (configuration not stated)", "PRKCI (human)", "%", 95.2),
    ("CC(C)(C)c1nc2c3ccc(F)cc3c3c(=O)[nH]ccc3c2[nH]1", "PRKCI (human)", "%", 96),
    ("O=c1cc(-c2cccc3c2Sc2ccccc2S3)oc(N2CCOCC2)c1", "PRKCI (human)", "%", 103),
    ("O=C1Nc2ccccc2/C1=C\\c1c(Cl)[nH]c2ccccc12", "PRKCI (human)", "%", 99.2),
    ("COc1cc2ncnc(Nc3ccc(F)c(Cl)c3)c2cc1OCCCN1CCOCC1", "PRKCI (human)", "%", 96.9),
    ("C#Cc1cccc(Nc2ncnc3cc(OCCOC)c(OCCOC)cc23)c1", "PRKCI (human)", "%", 99),
    ("Cc1ccc(NC(=O)c2ccc(CN3CCN(C)CC3)cc2)cc1Nc1nc(-c2cccnc2)cs1", "PRKCI (human)", "%", 93.7),
    ("CC(C)[C@H](CO)Nc1nc(Nc2cccc(Cl)c2)c2ncn(C(C)C)c2n1", "PRKCI (human)", "%", 96.6),
    ("NC(=O)c1ccc(N(C(N)=O)c2c(F)cccc2F)nc1-c1ccc(F)cc1F", "PRKCI (human)", "%", 99.1),
]
